Values from patent US20150322128A1

Quick list: EC50 hGIP-1 per entry.
- SUBJECT OF TEST: T1, human GIP receptor (human, UniProt P48546 22-466)
- T1 sequence (looked up): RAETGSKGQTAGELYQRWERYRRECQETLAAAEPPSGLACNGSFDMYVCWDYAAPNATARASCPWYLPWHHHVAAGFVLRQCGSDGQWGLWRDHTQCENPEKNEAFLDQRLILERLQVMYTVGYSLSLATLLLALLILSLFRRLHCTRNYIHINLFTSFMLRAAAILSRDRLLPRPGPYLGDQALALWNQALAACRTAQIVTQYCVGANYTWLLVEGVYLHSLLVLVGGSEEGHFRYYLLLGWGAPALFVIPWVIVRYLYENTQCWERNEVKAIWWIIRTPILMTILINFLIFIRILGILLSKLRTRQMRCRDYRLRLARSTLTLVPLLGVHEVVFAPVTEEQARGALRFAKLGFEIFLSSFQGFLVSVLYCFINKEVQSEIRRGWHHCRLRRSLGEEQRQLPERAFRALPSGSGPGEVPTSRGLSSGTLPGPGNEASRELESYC
- ASSAY NAME: cell-based or functional assay
Numbered stars: 1 amine (or outer) side, 2 acyl side, 3 side chain; on linkers, the order of the positions; unused ones are H or OH. Square brackets hold non-standard residues; d marks the D form. Side chains are listed from the residue outwards. Ends that are not written are not given here. * marks the point of attachment. γGlu = O=C(O)[C@H](CCC(=O)[*:2])N[*:1]; Palmitoyl = CCCCCCCCCCCCCCCC(=O)*; Aib = CC(C)(N)C(=O)O

BINDER | EC50 hGIP-1, nM
HXQGTFTSDLSKQKDEEAARLFIEWLKAGGPSSGAPPPS (D-Ser at 2; Lys 14 side chain K(γE-γE-x53) = (S)-4-Carboxy-4-((S)-4-carboxy-4-hexadecanoylamino-butyrylamino)-butyryl-; C-terminal amide) [SEQ ID NO: 32] | 0.565
H[dS]HGTFTSDLSKQK([γGlu-γGlu-Palmitoyl])DEEAARLFIEWL[Aib]AGGPSSGAPPPS-NH2 [SEQ ID NO: 7] | 0.908
H-HSQGTFTSDLSKQK([γGlu-γGlu-Palmitoyl])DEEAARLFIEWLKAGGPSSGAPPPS-NH2 [SEQ ID NO: 33] | 0.0708
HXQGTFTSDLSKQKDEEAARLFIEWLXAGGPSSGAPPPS (D-Ser at 2; Lys 14 side chain K(γE-γE-x53) = (S)-4-Carboxy-4-((S)-4-carboxy-4-hexadecanoylamino-butyrylamino)-butyryl-; Aib at 27; C-terminal amide) [SEQ ID NO: 9] | 3.6
HXHGTFTSDLSKQKEEEAARLFIEWLKAGGPSSGAPPPS (D-Ser at 2; Lys 14 side chain K(γE-γE-x53) = (S)-4-Carboxy-4-((S)-4-carboxy-4-hexadecanoylamino-butyrylamino)-butyryl-; C-terminal amide) [SEQ ID NO: 30] | 0.0778
HXHGTFTSDLSKQKDEEAARLFIEWLKAGGPSSGAPPPS (D-Ser at 2; Lys 14 side chain K(γE-γE-x53) = (S)-4-Carboxy-4-((S)-4-carboxy-4-hexadecanoylamino-butyrylamino)-butyryl-; C-terminal amide) [SEQ ID NO: 29] | 0.112
